- assayed.system: Ras-related C3 botulinum toxin substrate 1 (Mus musculus)
- procedure.details: wildtype Rac1 GTP binding inhibitors, dose response, biochemical, multiplex bead flow cytometry (AID 1340)
pEC50: −log10 of the molar value.
Entries and their measured pEC50 follow.

{"compound": "O=C(O)/C=C/c1cn(Cc2ccccc2)nc1-c1cccs1", "assayed.system": "Ras-related C3 botulinum toxin substrate 1 (Mus musculus)", "pEC50": 5.64}
{"compound": "O=C(O)/C=C/c1cn(Cc2ccccc2)nc1-c1ccc(Cl)cc1", "assayed.system": "Ras-related C3 botulinum toxin substrate 1 (Mus musculus)", "pEC50": 6.79}
{"compound": "Cc1cc(C(=O)Oc2ccccc2C(=O)O)c(C)o1 [2-(2,5-dimethyl-3-furoyl)oxybenzoic acid]", "assayed.system": "Ras-related C3 botulinum toxin substrate 1 (Mus musculus)", "pEC50": 6.99}
{"compound": "CC1(C)Cc2c(sc(NC(=S)NC(=O)c3ccccc3)c2C(=O)O)CO1", "assayed.system": "Ras-related C3 botulinum toxin substrate 1 (Mus musculus)", "pEC50": 7.09}
{"compound": "CCn1nc(C(=O)OCC(=O)c2cc(C)n(Cc3cccs3)c2C)c2ccccc2c1=O", "assayed.system": "Ras-related C3 botulinum toxin substrate 1 (Mus musculus)", "pEC50": 6.05}
{"compound": "O=C(O)c1ccccc1Sc1ncnc2sc3c(c12)CCC3", "assayed.system": "Ras-related C3 botulinum toxin substrate 1 (Mus musculus)", "pEC50": 5.91}
{"compound": "CCOC(=O)CN(C(=O)CSc1nnc2c(n1)[nH]c1ccc(OC)cc12)c1ccc(F)cc1", "assayed.system": "Ras-related C3 botulinum toxin substrate 1 (Mus musculus)", "pEC50": 6.03}
{"compound": "O=C(O)c1ccccc1NCc1ccccc1Cl [2-[(2-chlorobenzyl)amino]benzoic acid]", "assayed.system": "Ras-related C3 botulinum toxin substrate 1 (Mus musculus)", "pEC50": 6.05}
{"compound": "Cc1ccccc1C(=O)Nc1ccc2c(C#N)c3nc4ccccc4nc3n2c1 [MLS000591720]", "assayed.system": "Ras-related C3 botulinum toxin substrate 1 (Mus musculus)", "pEC50": 6.54}
{"compound": "O=C1/C(=C\\c2cccnc2)Sc2ccccc21", "assayed.system": "Ras-related C3 botulinum toxin substrate 1 (Mus musculus)", "pEC50": 4.03}
{"compound": "Cc1cc(C)cc(N=Cc2[nH]c3ccc(Br)c(Cl)c3c2O)c1", "assayed.system": "Ras-related C3 botulinum toxin substrate 1 (Mus musculus)", "pEC50": 5.52}
{"compound": "CC(C)Oc1ccc(C=NNC(=O)c2ccc(N(Cc3ccccc3)S(C)(=O)=O)cc2)cc1", "assayed.system": "Ras-related C3 botulinum toxin substrate 1 (Mus musculus)", "pEC50": 5.29}
{"compound": "COc1ccc(Cl)cc1NCc1sc(C(=O)O)cc1C", "assayed.system": "Ras-related C3 botulinum toxin substrate 1 (Mus musculus)", "pEC50": 5.74}
{"compound": "CC(=O)c1c(C)[nH]c(C(=O)N2CCc3ccccc3C2)c1C", "assayed.system": "Ras-related C3 botulinum toxin substrate 1 (Mus musculus)", "pEC50": 5.29}
{"compound": "N=C(N)NS(=O)(=O)c1ccc(NC(=S)NC(=O)c2ccc3c(c2)OCO3)cc1 [MLS000621545]", "assayed.system": "Ras-related C3 botulinum toxin substrate 1 (Mus musculus)", "pEC50": 5.55}
{"compound": "O=C(COc1ncnc2cc([N+](=O)[O-])ccc12)NCCc1ccc(Cl)cc1 [MLS000335629]", "assayed.system": "Ras-related C3 botulinum toxin substrate 1 (Mus musculus)", "pEC50": 5.27}
{"compound": "N#Cc1c(-c2ccccc2)nc(SCC(=O)Nc2ccccc2)[nH]c1=O", "assayed.system": "Ras-related C3 botulinum toxin substrate 1 (Mus musculus)", "pEC50": 5.45}
{"compound": "OC(CNCCc1ccc(Cl)cc1)COc1ccc2ccccc2c1 (configuration not stated)", "assayed.system": "Ras-related C3 botulinum toxin substrate 1 (Mus musculus)", "pEC50": 5.14}
{"compound": "Cc1sc2nc3ccc(NCc4ccco4)nn3c(=O)c2c1C", "assayed.system": "Ras-related C3 botulinum toxin substrate 1 (Mus musculus)", "pEC50": 5.04}
{"compound": "CCCc1nc2c(=O)n(C)c(=O)nc-2n(C)n1", "assayed.system": "Ras-related C3 botulinum toxin substrate 1 (Mus musculus)", "pEC50": 6.21}
{"compound": "Cc1cccc(-n2nc(CC#N)c(C#N)c2N)c1", "assayed.system": "Ras-related C3 botulinum toxin substrate 1 (Mus musculus)", "pEC50": 4.55}
{"compound": "NC(=S)NNC1=c2cc(F)ccc2=NC1=O", "assayed.system": "Ras-related C3 botulinum toxin substrate 1 (Mus musculus)", "pEC50": 5.46}

---

- assayed.system: Ras-related C3 botulinum toxin substrate 1 (Mus musculus, UniProt P63001)
- procedure.details: wildtype Rac1 GTP binding inhibitors, dose response, biochemical, multiplex bead flow cytometry (AID 1340)
pEC50: −log10 of the molar value.

{"molecule.smiles": "O=C(O)c1ccccc1NCCc1ccc(Cl)cc1", "pEC50": 5.82}
{"molecule.smiles": "O=C(C#Cc1ccccc1)c1cccc([N+](=O)[O-])c1", "pEC50": 4.72}
{"molecule.smiles": "COc1cc(SC#N)ccc1N=Cc1c(C)[nH]n(-c2ccc(C)c(C)c2)c1=O", "pEC50": 6.01}
{"molecule.smiles": "COc1cc(CN=Nc2nnc3c(n2)[nH]c2ccccc23)ccc1O", "pEC50": 6.20}
{"molecule.smiles": "O=C(O)c1ccc(COc2ccccc2Cl)o1", "pEC50": 4.58}
{"molecule.smiles": "Cc1ccc(C)c(OCCn2cc(C(=O)O)c3ccccc32)c1", "pEC50": 6.10}
{"molecule.smiles": "CCOC(=O)c1nc(Nc2ccc(C(C)=O)cc2)c2ccccc2n1", "pEC50": 5.47}
{"molecule.smiles": "COCCn1c(=S)[nH]c2cc(C(=O)N3CCc4ccccc4C3)ccc2c1=O", "pEC50": 6.22}
{"molecule.smiles": "COc1cc(C=NNC(=O)c2sc(N)nc2C)cc(OC)c1OC", "pEC50": 5.78}
{"molecule.smiles": "O=C(O)c1cn(CCOc2ccccc2)c2ccccc12", "pEC50": 5.26}
{"molecule.smiles": "CCOc1ccc(/C=C2\\SC(N3CCc4ccccc4C3)=NC2=O)cc1", "pEC50": 5.40}

---

- assayed.system: Ras-related C3 botulinum toxin substrate 1 (Mus musculus, UniProt P63001)
- procedure.details: wildtype Rac1 GTP binding inhibitors, dose response, biochemical, multiplex bead flow cytometry (AID 1340)
pEC50: −log10 of the molar value.
Mark Not fulfilled for pEC50 values under 6, and Fulfilled for everything at or above.

{"compound": "CC(C)C(NCc1c(Cl)cccc1Cl)C(=O)O (centres undefined)", "assayed.system": "Ras-related C3 botulinum toxin substrate 1 (Mus musculus, UniProt P63001)", "discrete.label": "Not fulfilled"}
{"compound": "O=C(O)c1ccccc1OCc1ccccc1Br", "assayed.system": "Ras-related C3 botulinum toxin substrate 1 (Mus musculus, UniProt P63001)", "discrete.label": "Fulfilled"}
{"compound": "CCN(CC)c1ccc2cc(-c3nc(-c4ccc(OC)cc4)cs3)c(=O)oc2c1", "assayed.system": "Ras-related C3 botulinum toxin substrate 1 (Mus musculus, UniProt P63001)", "discrete.label": "Fulfilled"}
{"compound": "COc1ccccc1NCc1sc(C(=O)O)cc1C", "assayed.system": "Ras-related C3 botulinum toxin substrate 1 (Mus musculus, UniProt P63001)", "discrete.label": "Not fulfilled"}
{"compound": "O=C(Nc1nc(-c2ccc(S(=O)(=O)N3CCCC3)cc2)cs1)c1ccco1", "assayed.system": "Ras-related C3 botulinum toxin substrate 1 (Mus musculus, UniProt P63001)", "discrete.label": "Not fulfilled"}
{"compound": "CN1C(=O)N(C)c2ccc(C=O)c3cccc1c23", "assayed.system": "Ras-related C3 botulinum toxin substrate 1 (Mus musculus, UniProt P63001)", "discrete.label": "Not fulfilled"}
{"compound": "Cc1cc(C(=O)Cn2nc(C(=O)O)c3ccccc3c2=O)c(C)n1-c1ccc(OC(F)F)cc1", "assayed.system": "Ras-related C3 botulinum toxin substrate 1 (Mus musculus, UniProt P63001)", "discrete.label": "Not fulfilled"}
{"compound": "Cc1cc(NC(=O)CSc2nc(O)c(C#N)c(-c3ccccc3)n2)no1", "assayed.system": "Ras-related C3 botulinum toxin substrate 1 (Mus musculus, UniProt P63001)", "discrete.label": "Not fulfilled"}
{"compound": "COc1ccc(C(=O)CC=Nc2ccc(S(=O)(=O)Nc3nc(C)cc(C)n3)cc2)cc1OC", "assayed.system": "Ras-related C3 botulinum toxin substrate 1 (Mus musculus, UniProt P63001)", "discrete.label": "Not fulfilled"}
{"compound": "Cc1cc(C)c(C)c(C(=O)c2ccccc2C(=O)O)c1C", "assayed.system": "Ras-related C3 botulinum toxin substrate 1 (Mus musculus, UniProt P63001)", "discrete.label": "Not fulfilled"}
{"compound": "COc1ccc(-c2nnc(SCC(=O)c3cccs3)o2)cc1", "assayed.system": "Ras-related C3 botulinum toxin substrate 1 (Mus musculus, UniProt P63001)", "discrete.label": "Not fulfilled"}
{"compound": "O=C(NNC(=S)NCc1ccc(Cl)cc1)c1ccc(Br)o1", "assayed.system": "Ras-related C3 botulinum toxin substrate 1 (Mus musculus, UniProt P63001)", "discrete.label": "Fulfilled"}
{"compound": "O=C(NC1CCCCC1)c1cc([N+](=O)[O-])n[nH]1", "assayed.system": "Ras-related C3 botulinum toxin substrate 1 (Mus musculus, UniProt P63001)", "discrete.label": "Not fulfilled"}

FYI, the data here is from BindingDB's records for doi:10.7270/Q2377749.
